System: L1210 leukemia ip in BDF1 mice, survival T/C
Experiment: NCI In Vivo Anticancer Drug Screen. Data for tumor model L1210 Leukemia (intraperitoneal) in B6D2F1 (BDF1) mice
Conditions: endpoint: mean survival time; dose: 100.0 mg/kg/injection; schedule: Q04DX003 (ip); vehicle: saline; higher = longer survival
Toxic doses and inconclusive results are not listed.
Measured endpoint: T/C

* CN(C)CCSc1ncnc2nc[nH]c12 | 94 % of control
* CC(=O)C1OC1(C)C (stereo not drawn) | 108 % of control
* O=[N+]([O-])CC(O)C(O)C(O)C(O)CO (stereo not drawn) | 102 % of control
* CNCc1nc2ccccc2c(C)[n+]1[O-] | 97 % of control

Name the reported T/C value associated with the compound "CN(C)C(=O)NNC(=O)N(C)C"
94 % of control

Also "O=c1[nH]c(=S)nc2nc[nH]n12" , if possible.
97 % of control

Also "Cc1ccc(-n2nnnc2N)c(C)c1" , if possible.
94 % of control
